system: HXB2-strain of HIV in MT4 cells; assay: Antiviral assay: protection of HIV-infected MT4 cells from cell death (MTT); assay type: cell-based; conditions: Human immunodeficiency virus 1, HXB2, MT4, 120 h, read-out: Antiviral Assay IC50
Where a name gives a salt, the structure may show the parent alone.
Observed property: IC50

# input Find the recorded IC50 belonging to N#Cc1cc(Cl)cc(Oc2c(Cl)ccc(OCc3n[nH]c4ncccc34)c2F)c1 [Compound I-3, trifluoroacetate salt] and report it.
# output 8 nM

###

molecular target: HIV-1 Reverse Transcriptase (Human immunodeficiency virus type 1 group M subtype B); assay: HIV-1 Reverse Transcriptase Assay (RNA-dependent DNA polymerase activity, SPA); type: biochemical; conditions: HIV-RT enzyme 1-3 nM, 30° C. for 30 min, 10% DMSO
Where a name gives a salt, the structure may show the parent alone.
For each record, write down the corresponding pIC50.
Remember the convention: pIC50 equals -log10 of concentration in molar.

# input Find the recorded pIC50 belonging to N#Cc1cc(Cl)cc(Oc2c(Cl)ccc(OCc3n[nH]c4ncccc34)c2F)c1 [Compound I-3, trifluoroacetate salt] and report it.
# output 7.96

# input Next record, please: N#Cc1cc(Cl)cc(C(=O)c2cc(Cl)ccc2OCc2n[nH]c3ncccc23)c1 [Compound I-2]
# output 7.61
